Field: effect of inhibiting TFPI, FXa activity assay, Ab 10 nM. Provide a value for each of the binders that follow.
Molecular target: recombinant human TFPI (tissue factor pathway inhibitor) (human, UniProt P10646 29-304)
Test: cell-based or functional assay

// worked examples, effect of inhibiting TFPI, FXa activity assay, Ab 10 nM included
clone 16 (antibody, V domains shown) VH: EVQLVESGGGLVKPGGSLRLSCAASGFTFSHYAMTWVRQAPGKGLEWVSTITTGGSHTYYADSVEGRFTISRDNAKNSLYLQMNSLRAEDTAVYYCARQDGNFLMDYWGQGTLVTVSS VL: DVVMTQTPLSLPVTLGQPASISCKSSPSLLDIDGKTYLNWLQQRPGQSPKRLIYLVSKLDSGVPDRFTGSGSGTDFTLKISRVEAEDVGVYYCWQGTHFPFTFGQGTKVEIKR ... ~34%
clone 1015 (antibody, V domains shown) VH: EVQLVESGGGLVKPGGSLRLSCAASGFTFSSYAMNWVRQAPGKGLEWVSTITTGGSHTYYADSVEGRFTISRDNAKNSLYLQMNSLRAEDTAVYYCARQDGNFLMDYWGQGTLVTVSS VL: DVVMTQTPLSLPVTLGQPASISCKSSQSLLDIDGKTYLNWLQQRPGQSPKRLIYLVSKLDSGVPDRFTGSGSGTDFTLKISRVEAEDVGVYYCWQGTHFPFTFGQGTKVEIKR ... ~71%

Moving on to another binder below.
Fill blank: measured effect of inhibiting TFPI, FXa activity assay, Ab 10 nM of the binder clone 8 (antibody, V domains shown) VH: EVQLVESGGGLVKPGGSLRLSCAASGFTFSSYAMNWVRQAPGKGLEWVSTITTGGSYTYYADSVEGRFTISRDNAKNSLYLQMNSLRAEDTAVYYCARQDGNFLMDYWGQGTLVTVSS VL: DVVMTQTPLSLPVTLGQPASISCKSSPSLLDVDGKTYLNWLQQRPGQSPKRLIYLVSKLDSGVPDRFTGSGSGTDFTLKISRVEAEDVGVYYCWQGTHFPFTFGQGTKVEIKR is ____.
~69%
